Reported half-life at 1 µM values follow for various compounds
# Method Description: Half life in CD1 mouse liver microsomes at 1 uM incubated for 60 mins under shaking condition by LC-MS/MS analysis
# Type: ADME, Microsome

Record excerpt, results attached:
CCC(=O)c1ccc(NC(=O)Nc2ccc(-c3nc(N4CCOCC4)c4ccccc4n3)cc2)cc1 : > 60 min
O=S(=O)(Nc1nccs1)c1ccc(Nc2nc(N3CCOCC3)c3ccccc3n2)cc1 : 52 min
O=C(Nc1ccc(-c2nc(N3CCOCC3)c3ccccc3n2)cc1)Nc1cncnc1 : 24.5 min
O=C(Nc1ccc(-c2nc(N3CCOCC3)c3ccccc3n2)cc1)Nc1ccc(S(=O)(=O)Nc2ccc(F)cc2)cc1 : > 60 min
CC(=O)Nc1ccc(NC(=O)Nc2ccc(-c3nc(N4CCOCC4)c4ccccc4n3)cc2)cc1 : > 60 min

Quick note, half-life at 1 µM for Oc1cccc(-c2nc(N3CCOCC3)c3oc4ncccc4c3n2)c1 landed at 7.1 min

The compound O=C(Nc1ccc(-c2nc(N3CCOCC3)c3ccccc3n2)cc1)Nc1ccc(S(=O)(=O)Nc2ccc(F)cc2F)cc1 showed half-life at 1 µM equal to > 60 min

The compound listed as O=C(Nc1ccc(-c2nc(N3CCOCC3)c3ccccc3n2)cc1)Nc1ccc(S(=O)(=O)Nc2ncccn2)cc1 has a reported half-life at 1 µM of > 60 min

Short answer for CNC(=O)Nc1ccc(-c2nc(N3CCOCC3)c3ccccc3n2)cc1 : half-life at 1 µM was 8 min

* * *

# System: MDA-MB-468
# Method Description: Antiproliferative activity against human MDA-MB-468 cells assessed as cell viability at 10 uM after 48 hrs by celltiter-glo 2D luminescent assay relative to control
# Format: functional
# Reported Conditions: read-out: Activity
Measured Metric: viability at 10 µM (%)
Write the answer as a number in %, unit excluded.

O=C(Nc1ccccc1)Nc1ccc(-c2nc(N3CCOCC3)c3ccccc3n2)cc1 : 80

Lab note: measured viability at 10 µM of CNC(=O)c1ccc(NC(=O)Nc2ccc(-c3nc(N4CCOCC4)c4ccccc4n3)cc2)cc1 was 54

In plain terms, N=C(N)NS(=O)(=O)c1ccc(NC(=O)Nc2ccc(-c3nc(N4CCOCC4)c4ccccc4n3)cc2)cc1 has a documented viability at 10 µM of 51

Data point: O=C(Nc1ccc(-c2nc(N3CCOCC3)c3ccccc3n2)cc1)Nc1ccc(S(=O)(=O)Nc2nccs2)cc1 ; viability at 10 µM = 59

* * *

# Method Description: Kinetic aqueous solubility of compound in 2% DMSO/Phosphate buffer saline incubated for 90 mins under shaking condition by
# Type: physicochemical
# Reported Conditions: 2% DMSO/phosphate buffered saline, read-out: Kinetic_solubility
# solubility kinetic at 1.5 h per record follows

Some solved entries appear below for comparison.
O=C(Nc1ccc(CCO)cc1)Nc1ccc(-c2nc(N3CCOCC3)c3ccccc3n2)cc1 : 5.9 µM
N=C(N)NS(=O)(=O)c1ccc(NC(=O)Nc2ccc(-c3nc(N4CCOCC4)c4ccccc4n3)cc2)cc1 : 6.1 µM
CCC(=O)c1ccc(NC(=O)Nc2ccc(-c3nc(N4CCOCC4)c4ccccc4n3)cc2)cc1 : 4 µM

The reported value for CNC(=O)c1ccc(NC(=O)Nc2ccc(-c3nc(N4CCOCC4)c4ccccc4n3)cc2)cc1 in terms of solubility kinetic at 1.5 h is < 2 µM

Oc1cccc(-c2nc(N3CCOCC3)c3oc4ncccc4c3n2)c1 has a reported solubility kinetic at 1.5 h of 3.4 µM
